test system: SW-620; assay: NCI tumour cell line growth inhibition, 48 h
Active and inactive are the calls of the source. Cut-off read from the data, not from the text of the source: active = GI50 up to about 1.1 µM and inactive = higher.
Possible outcomes: TRUE = active, FALSE = inactive

Record Smiles: COc1ccc(N(C(=O)OC(C)(C)C)[C@@H]2C(C)=C[C@H]([S@@+]([O-])c3ccc(C)cc3)[C@@H]3C(=O)N(C)C(=O)[C@@H]32)cc1
Cat: FALSE
//
Record Smiles: N/C(S)=N/N=C/c1ccc(O)cn1
Cat: FALSE
//
Record Smiles: Oc1c(CN2CCOCC2)ccc2cccnc12
Cat: FALSE
//
Record Smiles: CN(C)CCN(C)c1ccc2c(=O)n(CCN(C)C)c(=O)n3c4ccccc4c(=O)c1c23
Cat: TRUE
//
Record Smiles: COc1ccc(OCc2ccc3nc(-c4ccccc4)c(Cl)nc3c2)cc1
Cat: FALSE

====

test system: SNB-75; test: NCI tumour cell line growth inhibition, 48 h
Activity calls are given as the source filed them. Rule as the data show it: active = GI50 up to about 1.1 µM and inactive = higher.

Compound: Cc1c(S(=O)(=O)N/C(N)=N/c2ccc(Cl)cc2)sc2ccc(Cl)cc12
GI50: 19.6 µM (inactive)
//
Compound: c1ccc(C(NCC2CCO2)(c2ccccc2)c2ccccc2)cc1 (stereo not given)
GI50: 15.2 µM (inactive)
//
Compound: COC(=O)[C@@H](NC(=O)N(Cc1ccccc1)C[C@H](CC(C)C)NC(=O)[C@@H](NC(=O)OC(C)(C)C)C(C)C)C(C)C
GI50: 33.7 µM (inactive)
//
Compound: NC(Cc1nnn[nH]1)C(=O)O (stereo not given)
GI50: > 100 µM (inactive)
//
Compound: NC(=O)C1N=NSC1NC(=O)c1ccc([N+](=O)[O-])cc1 (stereo not given)
GI50: 67.3 µM (inactive)

====

tested on: HOP-62; test: NCI tumour cell line growth inhibition, 48 h
Activity calls are given as the source filed them. No stated cut-off is given here; in the data, active = GI50 up to about 1.1 µM and inactive = higher.

Compound: CN(C)c1nc(N)nc(CS)n1
GI50: 56.1 µM (inactive)
//
Compound: COc1cc(/C=N/c2nc3cc4sc(/N=C/c5cc(OC)c(OC)c(OC)c5)nc4cc3s2)cc(OC)c1OC
GI50: 57.1 µM (inactive)
//
Compound: Nc1c(-c2nc3ccccc3s2)[n+]([O-])c2ccccc2[n+]1[O-]
GI50: 22.5 µM (inactive)
//
Compound: COc1ccc(C2(Cl)C(Cl)(C(F)(F)F)C2(Cl)C(F)(F)F)cc1 (stereo not given)
GI50: 18.4 µM (inactive)
//
Compound: COc1ccc(C(CC(=O)c2ccc3c(c2)OCO3)c2c(O)oc3ccccc3c2=O)cc1OC (stereo not given)
GI50: > 100 µM (inactive)

====

test system: OVCAR-5; assay: NCI tumour cell line growth inhibition, 48 h
Activity calls are given as the source filed them. Cut-off read from the data, not from the text of the source: active = GI50 up to about 1.1 µM and inactive = higher.
Possible outcomes: active, inactive

Compound: Cc1cc2c(Br)cc(Br)c(O)c2nc1C(=O)c1ccccc1
Cat: inactive

Compound: CCN(CC)c1ccc2cc(C(N)=O)/c(=N/c3ccc(F)cc3)oc2c1
Cat: inactive

Compound: CCCCCC/C=C\CCCCCCCCCC1=CC(=O)C=C(OC)C1=O
Cat: inactive

Compound: c1ccc(C(NCC2CCO2)(c2ccccc2)c2ccccc2)cc1 (stereo not drawn)
Cat: inactive

Compound: NC(=O)C1N=NSC1NC(=O)c1ccc([N+](=O)[O-])cc1 (stereo not drawn)
Cat: inactive

Compound: CN(C)C=C1C(=O)c2c(Br)sc(Br)c2C1=O
Cat: inactive

Compound: COc1ccc2cc(/C=N\NC(=O)Nc3cccc4ccccc34)ccc2c1
Cat: inactive

Compound: CCOC(=O)/C(=N/Nc1ccccc1)N1C(=S)N(C)N=C(C)C=C1S
Cat: inactive

Compound: C=C1C(C(=O)OC)[C@H]1C(=O)OC (stereo partly drawn)
Cat: inactive

Compound: CCC(Cc1cnc2nc(N)nc(N)c2n1)c1ccc(C(=O)NC(CCC(=O)O)C(=O)O)cc1 (stereo not drawn)
Cat: active

Compound: Cc1ccc(Nc2nc(C)c(C(=O)CC(=O)C(=O)Nc3ccc(Cl)cc3)s2)cc1
Cat: inactive

Compound: CCCCCCCC/C=C\CCCCCCC/C=C1/C[C@](/C=C/C(=O)OC)(CO)OC1=O
Cat: inactive

Compound: O=c1cccccc1O
Cat: inactive

Compound: C=C(C)C(=O)O[C@H]1[C@H]2[C@H](OC(=O)[C@H]2C)[C@H](O)[C@@H](C)[C@@H]2C=CC(=O)[C@]21C
Cat: inactive

Compound: Cc1cc2cc(Cl)ccc2nc1C(=O)c1ccccc1
Cat: inactive

Compound: Cc1c2cccc-2c(OCCO)cc2c1[nH]c1ccccc12
Cat: inactive

Compound: CC1(C)CCc2cc3c(cc2O1)OCC1c2cc4c(cc2OC31)OCO4 (stereo not drawn)
Cat: inactive

Compound: Cc1n[nH]c(=O)n1/N=C\c1ccccc1
Cat: inactive

Compound: O=C(COc1ccc(Cl)cc1)N1N=C(c2ccc([N+](=O)[O-])o2)CC1(O)c1ccccc1 (stereo not drawn)
Cat: inactive

Compound: CN(C(=O)c1ccccc1)C1CCCC(=O)CC1 (stereo not drawn)
Cat: inactive

Compound: CCOC(=N)CC(=O)Nc1ccc(Cl)cc1
Cat: inactive

Compound: O=S(=O)(c1ccccc1)N1CN2CN(C1)CN(S(=O)(=O)c1ccccc1)C2
Cat: inactive

Compound: CCOC(=O)Nn1c(C)cc(C(=O)OC)c1C
Cat: inactive
